targetUnderTest: MAPK3 (human)
experimentDescription: radiometric filter-binding kinase assay, Kinase HotSpot
conditionDescription: compound 0.5 µM; ATP 10 µM
assayEndpoint: residual activity (%)
# value in %; strip the unit string

O=C1Nc2ccc(Br)cc2/C1=C\c1cc2c([nH]1)CCCC2: 95
COc1ccc(S(=O)(=O)N(CCO)c2ccccc2CN(C)C/C=C/c2ccc(Cl)cc2)cc1: 95.1
COc1ccc(Cl)cc1NC(=O)Nc1cc(C)nc2ccccc12: 94.6
CC(C)(C)c1cc(C=C(C#N)C#N)cc(Br)c1O: 105
COc1cc2ncnc(Nc3ccc(Oc4ccccc4)cc3)c2cc1OC: 105

Query: residual activity lookup needed for N#Cc1c[nH]c2c[nH]/c(=N\Cc3cccnc3)cc2/c1=N\c1ccc(F)c(Cl)c1 , thanks.
Response: 100

Query: Same lookup for C[C@@H]1CCN(C(=O)CC#N)C[C@@H]1N(C)c1ncnc2[nH]ccc12 , please.
Response: 98.6

Query: Same lookup for CN(C)S(=O)(=O)c1ccc2c(c1)/C(=C/c1cc3c([nH]1)CCCC3)C(=O)N2 , please.
Response: 102

Query: Same lookup for COc1cc2ncnc(Nc3ccc(OCc4ccccc4)cc3)c2cc1OC , please.
Response: 98.4

Query: Same lookup for COc1ccc(C(=O)Nc2sc3c(c2C(N)=O)CCCC3)cc1OC , please.
Response: 95.2

Query: Same lookup for NC(=O)c1cccc(-c2cc(Nc3ccc(OC(F)(F)F)cc3)ncn2)c1 , please.
Response: 94.5

Query: Same lookup for Cc1nc(-c2ccccc2)c(-c2ccncc2)o1 , please.
Response: 103

Query: Same lookup for O=C1c2ccccc2-c2nc3nnnn3nc21 , please.
Response: 87

Query: Same lookup for N#C/C(=C\c1ccc(O)c(O)c1)C(=O)NCc1ccccc1 , please.
Response: 106

Query: Same lookup for CN(C)CCCn1cc(C2=C(c3c[nH]c4ccccc34)C(=O)NC2=O)c2ccccc21 , please.
Response: 108

Query: Same lookup for Fc1ccc(-c2nc3n(c2-c2ccncc2)CCS3)cc1 , please.
Response: 103

Query: Same lookup for Cc1cncc2cccc(S(=O)(=O)N3CCCN(C(=O)CN)C[C@H]3C)c12 , please.
Response: 103

Query: Same lookup for COc1ccc2c(c1)c(C1=C(c3c[nH]c4ccccc34)C(=O)NC1=O)cn2CCCN(C)C , please.
Response: 93

Query: Same lookup for O=C1NC(=O)c2c1c1c3ccccc3[nH]c1n1cncc21 , please.
Response: 87.8

Query: Same lookup for O=C(c1cc2cc(O)ccc2[nH]1)c1cc2cc(O)ccc2[nH]1 , please.
Response: 107

Query: Same lookup for CS(=O)(=O)CCNCc1ccc(-c2ccc3ncnc(Nc4ccc(OCc5cccc(F)c5)c(Cl)c4)c3c2)o1 , please.
Response: 94.8

----------
targetUnderTest: MERTK (human)
experimentDescription: radiometric filter-binding kinase assay, Kinase HotSpot
conditionDescription: compound 0.5 µM; ATP 10 µM
Measured residual activity accompanies every entry in the list below.
# value in %; strip the unit string

Example entries begin here.
C[C@@H]1CCN(C(=O)CC#N)C[C@@H]1N(C)c1ncnc2[nH]ccc12: 114
COc1cc2ncnc(Nc3ccc(Oc4ccccc4)cc3)c2cc1OC: 51.2
Cc1cccc(-c2nc(C(C)(C)C)[nH]c2-c2ccc3c(c2)OCO3)n1: 82
CC(C)(C)c1cc(C=C(C#N)C#N)cc(Br)c1O: 97.3
COc1ccc2c(c1)c(C1=C(c3c[nH]c4ccccc34)C(=O)NC1=O)cn2CCCN(C)C: 84

Query: residual activity lookup needed for Cc1nc(-c2ccccc2)c(-c2ccncc2)o1 , thanks.
Response: 85.6

Query: Same lookup for CO[C@@H]1[C@H](N(C)C(=O)c2ccccc2)C[C@H]2O[C@]1(C)n1c3ccccc3c3c4c(c5c6ccccc6n2c5c31)C(=O)NC4 , please.
Response: 78.7
